Data credit: ChEMBL document CHEMBL1158602

Entries and their pIC50 values follow.
Molecular target: Cannabinoid receptor 2 (Homo sapiens, UniProt P34972)
Sequence (P34972 whole entry): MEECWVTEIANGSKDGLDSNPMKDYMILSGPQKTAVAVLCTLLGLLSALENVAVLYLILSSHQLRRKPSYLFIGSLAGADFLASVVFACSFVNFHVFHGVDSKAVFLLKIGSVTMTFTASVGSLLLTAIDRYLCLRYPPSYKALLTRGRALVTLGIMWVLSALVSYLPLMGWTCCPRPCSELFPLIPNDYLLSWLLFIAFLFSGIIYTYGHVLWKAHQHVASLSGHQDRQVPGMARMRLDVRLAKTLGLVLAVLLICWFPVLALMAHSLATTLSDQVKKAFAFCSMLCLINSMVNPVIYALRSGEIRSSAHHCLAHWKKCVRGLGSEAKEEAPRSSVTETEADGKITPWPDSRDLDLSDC
In simple prose, pIC50 is minus the logarithm base ten of a concentration in moles per litre.

Below: 5 compounds and their reported pIC50.
COMPOUND | pIC50
O=C(CO)NC1CC2(CCCCC2)Oc2nc(-c3ccccc3Cl)c(-c3ccc(Cl)cc3)cc21 (racemic) | 5.38
O=C1CC2(CCSCC2)Oc2nc(-c3ccccc3Cl)c(-c3ccc(Cl)cc3)cc21 | 5.10
CC1(C)CC(NC(=O)CO)c2cc(-c3ccc(Cl)cc3)c(-c3ccc(Cl)cc3Cl)nc2O1 (single isomer, unassigned; enantiomer 1) | 5.32
C[C@@H](O)C(=O)NC1CC2(CCCCC2)Oc2nc(-c3ccccc3Cl)c(-c3ccc(Cl)cc3)cc21 (stereo in doubt; 12h) | 5.47
CC1(C)CC(NC(=O)C(C)(C)CO)c2cc(-c3ccc(Cl)cc3)c(-c3ccc(Cl)cc3Cl)nc2O1 (single isomer, unassigned; enantiomer 1) | 6.24

Exam item: Report the value of pIC50 obtained on Cannabinoid receptor 2 (Homo sapiens, UniProt P34972) for CN1c2nc(-c3ccc(Cl)cc3Cl)c(-c3ccc(Cl)cc3)cc2C(C(=O)NCO)CC1(C)C (single isomer, unassigned; enantiomer 1) .
Marked response: 6.10
